Hey, just so you know, these numbers are from the supplement of paper PMC5998384.

Listed below: solubility in G1/S (log2) values for each entry.
- Tested on: HeLa Kyoto
- Method: solubility in G1/S (NP-40 vs SDS abundance) (log2 ratio); higher = more soluble
- Measurement Context: cell cycle stage: G1/S
Respond using a number only.

Example cases with answers are listed next.
MAATKRKRRGGFAVQAKKPKRNEIDAEPPAKRHATAEEVEEEERDRIPGPVCKGKWKNKERILIFSSRGINFRTRHLMQDLRMLMPHSKADTKMDRKDKLFVINEVCEMKNCNKCIYFEAKKKQDLYMWLSNSPHGPSAKFLVQNIHTLAELKMTGNCLKGSRPLLSFDPAFDELPHYALLKELLIQIFSTPRYHPKSQPFVDHVFTFTILDNRIWFRNFQIIEEDAALVEIGPRFVLNLIKIFQGSFGGPTLYENPHYQSPNMHRRVIRSITAAKYREKQQVKDVQKLRKKEPKTLLPHDPTADVFVTPAEEKPIEIQWVKPEPKVDLKARKKRIYKRQRKMKQRMDSGKTK [BRIX1]; -2.07
MGKVLSKIFGNKEMRILMLGLDAAGKTTILYKLKLGQSVTTIPTVGFNVETVTYKNVKFNVWDVGGQDKIRPLWRHYYTGTQGLIFVVDCADRDRIDEARQELHRIINDREMRDAIILIFANKQDLPDAMKPHEIQEKLGLTRIRDRNWYVQPSCATSGDGLYEGLTWLTSNYKS [ARF6]; 0.0719

# ---- query sequence ----
Prompt: Consider the sequence MAYPGHPGAGGGYYPGGYGGAPGGPAFPGQTQDPLYGYFAAVAGQDGQIDADELQRCLTQSGIAGGYKPFNLETCRLMVSMLDRDMSGTMGFNEFKELWAVLNGWRQHFISFDTDRSGTVDPQELQKALTTMGFRLSPQAVNSIAKRYSTNGKITFDDYIACCVKLRALTDSFRRRDTAQQGVVNFPYDDFIQCVMSV [SRI] and give its measured solubility in G1/S (log2).
Completion: 0.028

====

Listed below: solubility change mitosis (log2) values for each entry.
- Test system: HeLa Kyoto
- Method: solubility change mitosis vs G1/S (difference of NP-40 vs SDS log2 ratios) (log2 ratio difference); higher = more soluble in mitosis

MATLIYVDKENGEPGTRVVAKDGLKLGSGPSIKALDGRSQVSTPRFGKTFDAPPALPKATRKALGTVNRATEKSVKTKGPLKQKQPSFSAKKMTEKTVKAKSSVPASDDAYPEIEKFFPFNPLDFESFDLPEEHQIAHLPLSGVPLMILDEERELEKLFQLGPPSPVKMPSPPWESNLLQSPSSILSTLDVELPPVCCDIDI [PTTG1]; 0.554

# ---- query sequence ----
Prompt: # returns recorded solubility change mitosis (log2) (system: HeLa Kyoto) for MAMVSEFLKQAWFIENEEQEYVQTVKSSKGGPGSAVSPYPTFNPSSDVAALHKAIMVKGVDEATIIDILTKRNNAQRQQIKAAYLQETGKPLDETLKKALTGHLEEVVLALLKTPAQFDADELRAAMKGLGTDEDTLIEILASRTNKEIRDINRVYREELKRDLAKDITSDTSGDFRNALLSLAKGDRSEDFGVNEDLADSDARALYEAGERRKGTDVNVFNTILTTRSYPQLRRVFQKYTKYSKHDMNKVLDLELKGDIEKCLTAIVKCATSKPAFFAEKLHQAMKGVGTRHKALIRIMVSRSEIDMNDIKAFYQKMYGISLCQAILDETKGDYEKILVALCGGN [ANXA1]
Completion: 0.0587

====

- System: HeLa Kyoto
- Method: solubility change mitosis vs G1/S (difference of NP-40 vs SDS log2 ratios) (log2 ratio difference); higher = more soluble in mitosis
Observation Type: solubility change mitosis (log2)
Respond using a number only.

MLSLRVPLAPITDPQQLQLSPLKGLSLVDKENTPPALSGTRVLASKTARRIFQEPTEPKTKAAAPGVEDEPLLRENPRRFVIFPIEYHDIWQMYKKAEASFWTAEEVDLSKDIQHWESLKPEERYFISHVLAFFAASDGIVNENLVERFSQEVQITEARCFYGFQIAMENIHSEMYSLLIDTYIKDPKEREFLFNAIETMPCVKKKADWALRWIGDKEATYGERVVAFAAVEGIFFSGSFASIFWLKKRGLMPGLTFSNELISRDEGLHCDFACLMFKHLVHKPSEERVREIIINAVRIEQEFLTEALPVKLIGMNCTLMKQYIEFVADRLMLELGFSKVFRVENPFDFMENISLEGKTNFFEKRVGEYQRMGVMSSPTENSFTLDADF [RRM2]; 0.14
MGTPQKDVIIKSDAPDTLLLEKHADYIASYGSKKDDYEYCMSEYLRMSGIYWGLTVMDLMGQLHRMNREEILAFIKSCQHECGGISASIGHDPHLLYTLSAVQILTLYDSINVIDVNKVVEYVKGLQKEDGSFAGDIWGEIDTRFSFCAVATLALLGKLDAINVEKAIEFVLSCMNFDGGFGCRPGSESHAGQIYCCTGFLAITSQLHQVNSDLLGWWLCERQLPSGGLNGRPEKLPDVCYSWWVLASLKIIGRLHWIDREKLRNFILACQDEETGGFADRPGDMVDPFHTLFGIAGLSLLGEEQIKPVNPVFCMPEEVLQRVNVQPELVS [RABGGTB]; -0.347

Prompt: # returns recorded solubility change mitosis (log2) (system: HeLa Kyoto) for MRPVRLMKVFVTRRIPAEGRVALARAADCEVEQWDSDEPIPAKELERGVAGAHGLLCLLSDHVDKRILDAAGANLKVISTMSVGIDHLALDEIKKRGIRVGYTPDVLTDTTAELAVSLLLTTCRRLPEAIEEVKNGGWTSWKPLWLCGYGLTQSTVGIIGLGRIGQAIARRLKPFGVQRFLYTGRQPRPEEAAEFQAEFVSTPELAAQSDFIVVACSLTPATEGLCNKDFFQKMKETAVFINISRGDVVNQDDLYQALASGKIAAAGLDVTSPEPLPTNHPLLTLKNCVILPHIGSATHRTRNTMSLLAANNLLAGLRGEPMPSELKL [GRHPR]
Completion: -0.204

Prompt: # returns recorded solubility change mitosis (log2) (system: HeLa Kyoto) for MQRVSGLLSWTLSRVLWLSGLSEPGAARQPRIMEEKALEVYDLIRTIRDPEKPNTLEELEVVSESCVEVQEINEEEYLVIIRFTPTVPHCSLATLIGLCLRVKLQRCLPFKHKLEIYISEGTHSTEEDINKQINDKERVAAAMENPNLREIVEQCVLEPD [FAM96A]
Completion: 0.184

Prompt: # returns recorded solubility change mitosis (log2) (system: HeLa Kyoto) for MAGSYPEGAPAVLADKRQQFGSRFLRDPARVFHHNAWDNVEWSEEQAAAAERKVQENSIQRVCQEKQVDYEINAHKYWNDFYKIHENGFFKDRHWLFTEFPELAPSQNQNHLKDWFLENKSEVPECRNNEDGPGLIMEEQHKCSSKSLEHKTQTLPVEENVTQKISDLEICADEFPGSSATYRILEVGCGVGNTVFPILQTNNDPGLFVYCCDFSSTAIELVQTNSEYDPSRCFAFVHDLCDEEKSYPVPKGSLDIIILIFVLSAIVPDKMQKAINRLSRLLKPGGMMLLRDYGRYDMAQLRFKKGQCLSGNFYVRGDGTRVYFFTQEELDTLFTTAGLEKVQNLVDRRLQVNRGKQLTMYRVWIQCKYCKPLLSSTS [METTL2A]
Completion: 0.0978

====

- System: HeLa Kyoto
- Method: thermal stability score vs G1/S (z-score of summed log2 fold changes over temperatures); higher = more thermally stable than in G1/S
- Measurement Context: cell cycle stage: early G1 (4.5 h after nocodazole release)
Observation Type: thermal stability score
Respond using a number only.

Prompt: # returns recorded thermal stability score (system: HeLa Kyoto) for MEAVLTEELDEEEQLLRRHRKEKKELQAKIQGMKNAVPKNDKKRRKQLTEDVAKLEKEMEQKHREELEQLKLTTKENKIDSVAVNISNLVLENQPPRISKAQKRREKKAALEKEREERIAEAEIENLTGARHMESEKLAQILAARQLEIKQIPSDGHCMYKAIEDQLKEKDCALTVVALRSQTAEYMQSHVEDFLPFLTNPNTGDMYTPEEFQKYCEDIVNTAAWGGQLELRALSHILQTPIEIIQADSPPIIVGEEYSKKPLILVYMRHAYGLGEHYNSVTRLVNIVTENCS [OTUD6B]
Completion: 0.405

Prompt: # returns recorded thermal stability score (system: HeLa Kyoto) for MSAAGLLAPAPAQAGAPPAPEYYPEEDEELESAEDDERSCRGRESDEDTEDASETDLAKHDEEDYVEMKEQMYQDKLASLKRQLQQLQEGTLQEYQKRMKKLDQQYKERIRNAELFLQLETEQVERNYIKEKKAAVKEFEDKKVELKENLIAELEEKKKMIENEKLTMELTGDSMEVKPIMTRKLRRRPNDPVPIPDKRRKPAPAQLNYLLTDEQIMEDLRTLNKLKSPKRPASPSSPEHLPATPAESPAQRFEARIEDGKLYYDKRWYHKSQAIYLESKDNQKLSCVISSVGANEIWVRKTSDSTKMRIYLGQLQRGLFVIRRRSAA [SUDS3]
Completion: 0.216

Prompt: # returns recorded thermal stability score (system: HeLa Kyoto) for MHQQKRQPELVEGNLPVFVFPTELIFYADDQSTHKQVLTLYNPYEFALKFKVLCTTPNKYVVVDAAGAVKPQCCVDIVIRHRDVRSCHYGVIDKFRLQVSEQSQRKALGRKEVVATLLPSAKEQQKEEEEKRLKEHLTESLFFEQSFQPENRAVSSGPSLLTVFLGVVCIAALMLPTLGDVESLVPLYLHLSVNQKLVAAYILGLITMAILRT [MOSPD1]
Completion: -1.29

Prompt: # returns recorded thermal stability score (system: HeLa Kyoto) for MPDENIFLFVPNLIGYARIVFAIISFYFMPCCPLTASSFYLLSGLLDAFDGHAARALNQGTRFGAMLDMLTDRCSTMCLLVNLALLYPGATLFFQISMSLDVASHWLHLHSSVVRGSESHKMIDLSGNPVLRIYYTSRPALFTLCAGNELFYCLLYLFHFSEGPLVGSVGLFRMGLWVTAPIALLKSLISVIHLITAARNMAALDAADRAKKK [CDIPT]
Completion: -2.08

Prompt: # returns recorded thermal stability score (system: HeLa Kyoto) for MSVRVARVAWVRGLGASYRRGASSFPVPPPGAQGVAELLRDATGAEEEAPWAATERRMPGQCSVLLFPGQGSQVVGMGRGLLNYPRVRELYAAARRVLGYDLLELSLHGPQETLDRTVHCQPAIFVASLAAVEKLHHLQPSVIENCVAAAGFSVGEFAALVFAGAMEFAEGLYAVKIRAEAMQEASEAVPSGMLSVLGQPQSKFNFACLEAREHCKSLGIENPVCEVSNYLFPDCRVISGHQEALRFLQKNSSKFHFRRTRMLPVSGAFHTRLMEPAVEPLTQALKAVDIKKPLVSVYSNVHAHRYRHPGHIHKLLAQQLVSPVKWEQTMHAIYERKKGRGFPQTFEVGPGRQLGAILKSCNMQAWKSYSAVDVLQTLEHVDLDPQEPPR [MCAT]
Completion: -1.29
